target of assay: Hepatocyte growth factor receptor (Homo sapiens);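 also: reported values are means of MET inhibition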
run conditions: at 0.1 µM
Parameter: inhibition. Scope: all listed entries.
Entry rule: numbers only, all in %.

INSERT INTO assay_data (molecule, recorded_measurement) VALUES
  ('COc1cc(C=NNc2ncnc3c2cnn3-c2ccccc2)ccc1O', 21.5),
  ('CCn1c(-c2nonc2N)nc2c(C#CC(C)(C)O)nc(OC[C@@H](N)c3ccccc3)cc21', -2.86);

Return inhibition for the following molecule: COc1cccc(-n2ncc3c(N/N=C/c4cccc(F)c4)ncnc32)c1
7.49

Return inhibition for the following molecule: CC1=C(C(=O)Nc2ccc3[nH]ncc3c2)C(c2ccc(Cl)c(Cl)c2)CC(=O)N1 (stereo unspecified)
-0.1

Return inhibition for the following molecule: COc1cc2ncn(-c3cc(O[C@H](C)c4ccccc4Cl)c(C(N)=O)s3)c2cc1OC
4.85

Return inhibition for the following molecule: Nc1nc(-c2ccc3c(c2)C(=Cc2cc(Br)c(O)c(Br)c2)C(=O)N3)cs1
1.02

Return inhibition for the following molecule: CCn1c(-c2nonc2N)nc2ccncc21
8.81

Return inhibition for the following molecule: c1cnn2ncc(-c3ccnc(Nc4ccc5c(c4)OCCO5)n3)c2c1
3.78

Return inhibition for the following molecule: Fc1cccc(COc2ccc(Nc3ncnc4sc(-c5cccs5)cc34)cc2Cl)c1
-1.35

# credit: ChEMBL document CHEMBL1961873
